Tested on: OVCAR-4 ovarian
Assay: NCI tumour cell line growth inhibition, 48 h; in the data active means GI50 below about 0.43 µM; inactive means the rest
The categories you may choose from are yes (active), no (inactive)

Look over these answered cases.
Please let me know the test result on file for CCc1cc2ncc(CN3CCN(c4ccc(C(=O)NC)nc4)CC3)cc2[nH]c1=O .
no

Please let me know the test result on file for CN1CCN(c2nc(NCCCNc3ccnc4cc(Cl)ccc34)c3ccccc3n2)CC1 .
no

Please let me know the test result on file for C[CH2][Ge]([CH2]C)([CH2]C)[O]C(=O)CCC(=O)[O][Ge]([CH2]C)([CH2]C)[CH2]C .
no

Please let me know the test result on file for CCOC(=O)c1c(C)nc2c(c1N)CC(=O)N2CCc1ccccc1 .
no

Please let me know the test result on file for Cc1ccc(C2=Nc3c(N)ncnc3NC(c3ccc4c(c3)OCO4)C2)cc1 (stereo not drawn) .
no

More entries:
Please let me know the test result on file for N=C(N)c1ccc(NCCOCCNc2ccc(C(=N)N)cc2)cc1 .
no

Please let me know the test result on file for Cc1ccc(C2=C(c3ccccc3)C(c3ccccc3)Oc3ccc(C)cc32)cc1 (stereo not drawn) .
no

Please let me know the test result on file for CC(C)n1nc(-c2ccc3oc(N)nc3c2)c2c(N)ncnc21 .
yes

Please let me know the test result on file for COc1ccc(/C=C2\CN(Cc3cn(CCNc4ccnc5cc(Cl)ccc45)nn3)C/C(=C\c3ccc(OC)c(OC)c3)C2=O)cc1OC .
no

Please let me know the test result on file for COC(=O)/C=C1/SC(N2N=C(c3cccs3)CC2c2ccc(F)cc2)=NC1=O (stereo not drawn) .
no

Please let me know the test result on file for Cc1[nH]c(-c2nc3ccccc3[nH]2)c(C)c1C(=O)NC(C)C1CCCCC1 (stereo not drawn) .
no

Please let me know the test result on file for N=C(N)c1ccc(-c2ccc(-c3cccs3)s2)s1 .
no

Please let me know the test result on file for CCCCNC(=O)Oc1ccc(/C(=C(/C)Cc2ccc(OC)cc2)c2ccc(OCCN3CCCC3)cc2)cc1 .
no

---

System: HOP-62 NSCLC
Experiment: NCI tumour cell line growth inhibition, 48 h
Endpoint: TGI (µM)
Give the value, in units of µM, as a plain number.

Requested field: TGI. Item: CN(C)CC(C(=O)Cc1ccccc1)c1ccccc1 (stereo not given)
21

More entries:
Requested field: TGI. Item: O=[N+]([O-])/C(C(Cl)=C(Cl)Cl)=C(\Nc1ccccc1)n1nnc2ccccc21
93.6

Requested field: TGI. Item: C[C@]12CC[C@H]3[C@@H](C[C@@H]4SC(Nc5ccccc5)=N[C@@]45CC(O)CC[C@]35C)[C@@H]1CCC2O (stereo not given in full)
6.54

Requested field: TGI. Item: COc1cc(C2C3=C(COC3=O)Nc3c2ccc2c3CCCC2)cc2c1OCO2 (stereo not given)
18.7

---

Tested on: ACHN renal
Experiment: NCI tumour cell line growth inhibition, 48 h
Endpoint: GI50

Previously resolved entries follow.
Requested field: GI50. Item: CCCCC(=O)N/N=C/c1c(O)ccc2ccccc12
1.38 µM

Requested field: GI50. Item: COc1cc(-c2n/c(=C\c3c(O)[nH]c4cc(Cl)ccc34)cc3c2=Nc2ccccc2-3)cc(OC)c1OC
4.49 µM

Requested field: GI50. Item: COc1cc(N2CCN(C(C)C)CC2)ccc1Nc1nc(Nc2cccc(F)c2C(=O)O)c2cc[nH]c2n1
> 25 µM

Requested field: GI50. Item: C[CH2][Ge]([CH2]C)([CH2]C)[O]C(=O)CCC(=O)[O][Ge]([CH2]C)([CH2]C)[CH2]C
> 100 µM

More entries:
Requested field: GI50. Item: O=C1Nc2ccccc2/C1=C\c1nc(C2CCN(S(=O)(=O)c3ccc(F)cc3)CC2)n2ccccc12
4.07 µM

Requested field: GI50. Item: Cc1cc(C(=O)O)c(C)n1-c1cccc(C(=O)O)c1
> 100 µM

Requested field: GI50. Item: CCCCc1n(Cc2ccc3ccccc3c2)cc[n+]1Cc1ccc2ccccc2c1
1.97 µM

Requested field: GI50. Item: Cc1[nH]nc2c1N=C(c1ccccc1F)c1cc(C(N)=O)ccc1N2
3.3 µM

Requested field: GI50. Item: Cc1[nH]c(-c2nc3ccccc3[nH]2)c(C)c1C(=O)NC(C)C1CCCCC1 (stereo not given)
14.4 µM

Requested field: GI50. Item: O=[n+]1c2ccccc2n([O-])c2cc(Cl)ccc21
2.91 µM
